# target: T1, PlGF (human, UniProt P49763)
# T1 chain: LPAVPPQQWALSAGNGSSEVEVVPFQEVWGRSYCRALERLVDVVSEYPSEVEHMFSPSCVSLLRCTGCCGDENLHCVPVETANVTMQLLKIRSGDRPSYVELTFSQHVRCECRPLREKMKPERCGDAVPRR
# assay-summary: ELISA
recorded-metric: EC50

DVD257 PlGF arm (antibody, V domains shown, DVD-Ig inner) VH: QVQLQQSGAELVKPGASVKISCKASGYTFTDYYINWVKLAPGQGLEWIGWIYPGSGNTKYNEKFKGKATLTIDTSSSTAYMQLSSLTSEDTAVYFCVRDSPFFDYWGQGTLLTVSS VL: DIVLTQSPDSLAVSLGERVTMNCKSSQSLLNSGMRKSFLAWYQQKPGQSPKLLIYWASTRESGVPDRFTGSGSGTDFTLTISSVQAEDVAVYYCKQSYHLFTFGSGTKLEIKR	2 nM
